Assay: NFAT Signaling Pathway (AID 444);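 note: carbachol stimulus at about its EC50 of 1 µM final; % is set by controls: 0 for no effect and ±100 for the full control effect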
Details: Jurkat NFAT-bla M1, carbachol, beta-lactamase ratio, 5 h; at 17.2 µM (top of the series) unless noted
Results filed as inconclusive are left out.
Consider the following compounds and their measured activity change, negative = inhibition readings.
Kindly provide the numeric value in % only, without the unit symbol.

- COMPOUND: "CC(=O)N[C@@H](CC(=O)O)C(=O)O"
  activity change, negative = inhibition, %: -10.7
- COMPOUND: "CC1(C)S[C@@H]2[C@H](NC(=O)[C@@H](N)c3ccc(O)cc3)C(=O)N2[C@H]1C(=O)O"
  activity change, negative = inhibition, %: -4.29
- COMPOUND: "C#C[C@@]1(O)CC[C@@H]2[C@@H]3CCC4=C(CCC(=O)C4)[C@H]3CC[C@]21C"
  activity change, negative = inhibition, %: -5.71
- COMPOUND: "CCCC(=O)Nc1ccc(OC[C@@H](O)CNC(C)C)c(C(C)=O)c1"
  activity change, negative = inhibition, %: -10.7
- COMPOUND: "O=C(O)[C@@H]1[C@@H]2C[C@H]3c4[nH]c5ccccc5c4CCN3C[C@@H]2CC[C@@H]1O"
  activity change, negative = inhibition, %: -27
- COMPOUND: "C[C@@H]1Cc2ccccc2N1NC(=O)c1ccc(Cl)c(S(N)=O)c1 (some centres undefined)"
  activity change, negative = inhibition, %: 6.1
- COMPOUND: "O=c1[nH]c(=O)n([C@@H]2C[C@H](O)[C@H](CO)O2)cc1C(F)(F)F"
  activity change, negative = inhibition, %: 1.4
- COMPOUND: "Cc1n[nH]c(=O)[nH]c1=O"
  activity change, negative = inhibition, %: -10
- COMPOUND: "NC[C@@H]1O[C@H](O[C@@H]2[C@H](O[C@@H]3O[C@H](CO)[C@@H](COC[C@H]4O[C@@H](CN)[C@@H](O)[C@@H](O)[C@@H]4N)[C@@H]3O)[C@@H](O)[C@@H](N)C[C@H]2N)[C@@H](N)[C@H](O)[C@@H]1O"
  activity change, negative = inhibition, %: -1.32
- COMPOUND: "C[N+]1(C)C[C@@H](O)C[C@@H]1C(=O)[O-]"
  activity change, negative = inhibition, %: -11.1

Reported activity change, negative = inhibition of `Cc1ccc(S(=O)(=O)NC(=O)NN2C[C@H]3CCC[C@@H]3C2)cc1` : -2

Reported activity change, negative = inhibition of `O=C(N[C@@H](CO)[C@@H](O)c1ccc([N+](=O)[O-])cc1)C(Cl)Cl` : -12.6

###

System: ICS
Assay: qHTS profiling for inhibitors of Plasmodium falciparum proliferation (AID 504749); note: nearly all actives have a fitted effect of over 60% in size
Conditions: P. falciparum in erythrocytes, SYBR Green DNA, 72 h; series mostly up to 12.8 µM
Records with an inconclusive call do not appear. The source made the active and inactive calls. Calls come from the whole dose curve; as a rule, active = well fitted inhibition curve with a large enough effect; inconclusive = small, poorly fitted or top-dose-only effect; inactive = flat fitted curve, though single readings scatter.
Use one of these outcomes when replying: active, inactive

- ITEM_SMILES: "CC1=C(C(=O)O)N2C(=O)[C@@H](NC(=O)[C@@H](N)c3ccc(O)cc3)[C@@H]2SC1"
  TEST_TARGET: "ICS"
  QUALITATIVE_LABEL: "inactive"
- ITEM_SMILES: "CCC(=O)O[C@@]1(C(=O)SCF)[C@@H](C)C[C@H]2[C@@H]3C[C@@H](F)C4=CC(=O)C=C[C@@]4(C)[C@]3(F)[C@@H](O)C[C@]21C"
  TEST_TARGET: "ICS"
  QUALITATIVE_LABEL: "active"
- ITEM_SMILES: "C[C@H]1CC[C@]2(OC1)O[C@@H]1C[C@@H]3[C@@H]4CC[C@H]5C[C@@H](O)CC[C@]5(C)[C@@H]4CC(=O)[C@@]3(C)[C@H]1[C@@H]2C"
  TEST_TARGET: "ICS"
  QUALITATIVE_LABEL: "inactive"

Exam item: Status in this test for `CC(=O)N(C[C@@H](C)C(=O)O)c1c(I)cc(I)c(N)c1I` ?
Marked response: inactive
